RUN DESCRIPTION: Stepwise formation constants for Fe-ligand system by titration in 0.1M NaCl
Format: physicochemical
PARTICULARS: stepwise constant, Fe-ligand system, Example 53
Overview of recorded K122 for various compounds
Write the value as a bare number.

Worked examples follow.
Entry O=c1ccn(CC(F)(F)F)c(CN2CCOCC2)c1O : reported K122 = ?
16.5

Same question for CNC(c1cn(C)c(C)c(O)c1=O)C(F)(F)F (stereo not shown) please.
17.2

Same question for CN(C)Cc1c(O)c(=O)ccn1CC(F)(F)F please.
18.7

Could you now consider this next compound?
Entry Cc1c(O)c(=O)c(C(N2CCOCC2)C(F)(F)F)cn1C (stereo not shown) : reported K122 = ?
14.5

---

RUN DESCRIPTION: Stepwise formation constants for Fe-ligand system by titration in 0.1M NaCl
Type: physicochemical
PARTICULARS: Example 53: Log β132 − pKa2(C)
Overview of recorded Log β131 (Fe3+) for various compounds
Write the value as a bare number.

Entry CNC(c1cn(C)c(C)c(O)c1=O)C(F)(F)F (stereo not shown) : reported Log β131 (Fe3+) = ?
42.3

Same question for Cc1c(O)c(=O)c(C(N2CCOCC2)C(F)(F)F)cn1C (stereo not shown) please.
39.6

Same question for CN(C)Cc1c(O)c(=O)ccn1CC(F)(F)F please.
42.6

Could you now consider this next compound?
Entry O=c1ccn(CC(F)(F)F)c(CN2CCOCC2)c1O : reported Log β131 (Fe3+) = ?
41.6

---

RUN DESCRIPTION: Stepwise formation constants for Fe-ligand system by titration in 0.1M NaCl
Format: physicochemical
PARTICULARS: stepwise constant, Fe-ligand system, Example 53
ENDPOINT NAME: K133
Write the value as a bare number.

Entry CN(C)Cc1c(O)c(=O)ccn1CC(F)(F)F [Apo7067] : reported K133 = ?
17.0

Same question for CNC(c1cn(C)c(C)c(O)c1=O)C(F)(F)F (stereo not shown) [Apo7056] please.
15.6

Same question for Cc1c(O)c(=O)c(C(N2CCOCC2)C(F)(F)F)cn1C (stereo not shown) [Apo7435] please.
14.4

Could you now consider this next compound?
Entry O=c1ccn(CC(F)(F)F)c(CN2CCOCC2)c1O [Apo7323] : reported K133 = ?
15.1

---

RUN DESCRIPTION: Stepwise formation constants for Fe-ligand system by titration in 0.1M NaCl
Format: physicochemical
PARTICULARS: Example 53: Log β133 − pKa3(C)
Overview of recorded Log β132 (Fe3+) for various molecules
Write the value as a bare number.

Entry CN(C)Cc1c(O)c(=O)ccn1CC(F)(F)F : reported Log β132 (Fe3+) = ?
49.6

Same question for O=c1ccn(CC(F)(F)F)c(CN2CCOCC2)c1O please.
46.2

Same question for CNC(c1cn(C)c(C)c(O)c1=O)C(F)(F)F (stereo not shown) please.
47.3

Could you now consider this next molecule?
Entry Cc1c(O)c(=O)c(C(N2CCOCC2)C(F)(F)F)cn1C (stereo not shown) : reported Log β132 (Fe3+) = ?
42.7

---

Overview of recorded logD for various compounds
RUN DESCRIPTION: Distribution coefficient determination, D7.4 (1-octanol / K2HPO4 buffer)
Format: physicochemical
PARTICULARS: 1-octanol / K2HPO4 buffer 50 mM pH 7.4; read-out: Log D7.4
Write the value as a bare number.

Worked examples follow.
Entry Cc1c(O)c(=O)ccn1CC(F)(F)F : reported logD = ?
0.4

Same question for Cc1c(Cl)c(=O)c(O)c(CC(F)(F)F)n1C please.
0.94

Same question for Cc1cc(=O)c(O)c(CN(C)C)n1CC(F)(F)F please.
0.69

Same question for CCc1c(O)c(=O)ccn1CC(F)(F)F please.
0.77

Same question for CN(C)C(c1c(O)c(=O)c(Cl)cn1C)C(F)(F)F (centres unmarked) please.
0.69

Same question for Cn1cc(Cl)c(=O)c(O)c1CC(F)(F)F please.
0.67

Same question for CN(C)Cc1c(O)c(=O)ccn1CC(F)(F)F please.
0.45

Could you now consider this next compound?
Entry Cc1cc(=O)c(O)c(CN(C)C)n1CC(F)F : reported logD = ?
0.23
